test-target: HLA-A1101 (Homo sapiens, UniProt P04439, A114D/D185E/E176A/F33Y/L180Q/S129P/T187R)
Construct: expressed in transfected cells; host or cells: HMy2.CIR
assay-overview: cell-based
Type: binding
condition-notes: A1101; peptide 15 μM vs FITC-labeled reference peptide 300 nM, 24 h, 4°C, flow cytometry; read-out: 15-μM inhibition (%)
Where no end group is shown, it is not given here.
Label rule, in plain words: inhibition at 15 µM of 90% and up is 1 (yes), under 90% is 0 (no).

Reference set, count: 6
INSERT INTO measurements (macromolecule_sequence, classification) VALUES
  ('RTAHTNDVK [Peptide P39]', '0 (no)'),
  ('SVIKQACPK [Peptide P21]', '0 (no)'),
  ('SVQCTHGIK [Peptide P25]', '0 (no)'),
  ('VTENFNMWK [Peptide P26]', '1 (yes)'),
  ('SILDIRQGPK [Peptide P33]', '1 (yes)'),
  ('ELYPLTSLK [Peptide P29]', '0 (no)');

API: the following record is the query input.
Inquiry: Decide: inhibition at 15 µM of TVQPIQLPEK [Peptide P35] >= 90%?
Reply text: 1 (yes)

----------
# inhibition at 5 µM values compiled below
test-target: HLA-A3101 (Homo sapiens, UniProt P04439, A270S/D185E/E176V/E277Q/F33T/G231S/G80R/H175R/I121M/I218V/I322F/K168Q/L300P/L318F/M331R/P217A/Q94H/R138Q/T323A/T345S/T97I/V358M)
Construct: expressed in transfected cells; host or cells: HMy2.CIR
assay-overview: Peptide competitive binding assay, HMy2.CIR cells expressing A3101
condition-notes: A3101; peptide 5 μM vs FITC-labeled reference peptide 300 nM, 24 h, 4°C, flow cytometry
Where no end group is shown, it is not given here.
All answers are understood in %, so give the number only.

Here are 2 sequences together with their reported answers.
INSERT INTO results (macromolecule_sequence, endpoint_unit, number) VALUES
  ('KAREFSSER [Peptide P100]', '%', 42.9),
  ('RAKRRVVER [Peptide P98]', '%', 47.9);

For this sequence ( RSNFKGSKR [Peptide P97] ), measured inhibition at 5 µM is 66.6

For this sequence ( IQNFRVYYR [Peptide P112] ), measured inhibition at 5 µM is 20.1

For this sequence ( MTKILEPFR [Peptide P102] ), measured inhibition at 5 µM is 60.2

For this sequence ( MVHQPISPR [Peptide P103] ), measured inhibition at 5 µM is 65.4

----------
test-target: HLA-A3101 (Homo sapiens, UniProt P04439, A270S/D185E/E176V/E277Q/F33T/G231S/G80R/H175R/I121M/I218V/I322F/K168Q/L300P/L318F/M331R/P217A/Q94H/R138Q/T323A/T345S/T97I/V358M)
Construct: expressed in transfected cells; host or cells: HMy2.CIR
assay-overview: Peptide competitive binding assay, HMy2.CIR cells expressing A3101
condition-notes: A3101; peptide 15 μM vs FITC-labeled reference peptide 300 nM, 24 h, 4°C, flow cytometry
Where no end group is shown, it is not given here.
metric: inhibition at 15 µM (%)
All answers are understood in %, so give the number only.

INSERT INTO measurements (macromolecule_sequence, endpoint_unit, number) VALUES
  ('MTKILEPFR [Peptide P102]', '%', 88.3),
  ('MVHQPISPR [Peptide P103]', '%', 79.2),
  ('RAKRRVVER [Peptide P98]', '%', 82),
  ('KAREFSSER [Peptide P100]', '%', 95.1),
  ('RSNFKGSKR [Peptide P97]', '%', 92.9);

Okay, next one:
For this sequence ( IQNFRVYYR [Peptide P112] ), measured inhibition at 15 µM is 25.7
